Consider the following molecules and their measured zone of inhibition at 15 µg/disc readings.
# System: Bacillus subtilis
# assay.procedure: Antibacterial activity against Bacillus subtilis at 15 ug/disk
# Assay type: functional
# condition.set: read-out: IZ

C/C1=C\[C@@H](C)C/C=C/[C@H]2[C@@H]3O[C@]3(C)[C@@H](C)[C@H]3[C@H](Cc4c[nH]c5ccccc45)NC(=O)[C@]32C(=O)/C=C/C(=O)[C@@H]1O | 3 mm
C=C1[C@@H](C)[C@H]2[C@H](Cc3c[nH]c4ccccc34)NC(=O)[C@]23C(=O)/C=C/C(=O)[C@H](O)/C(C)=C/[C@@H](C)C/C=C/[C@H]3[C@@H]1O | 3 mm
CC1=C[C@@H]2/C=C/C[C@H](C)/C=C(\C)[C@@H](O)C(=O)/C=C/C(=O)[C@]23C(=O)N[C@@H](Cc2c[nH]c4ccccc24)[C@@H]3[C@@H]1C | 2 mm

The record that follows has no zone of inhibition at 15 µg/disc shown yet.
Task item: Please give the measured zone of inhibition at 15 µg/disc for this molecule: `CC1=C(C)[C@H]2[C@H](Cc3c[nH]c4ccccc34)NC(=O)[C@]23C(=O)/C=C/C(=O)[C@H](O)/C(C)=C/[C@@H](C)C/C=C/[C@H]3[C@@H]1O`
Reply: 1 mm

This collection of values is drawn from ChEMBL document CHEMBL1148925.
